Biological target: T1, rat serum albumin (rat, UniProt P02770 25-608)
T1 construct: also called RSA
Assay: SPR, single cycle kinetics, pH 7.4
Observable: Kd (nM)

binder="M75-H3 (VHH) VHH: QVQLVESGGGLVQPGGSLRLSCAASGRTFDNYVMAWFRQAPGKEREFVASISGSGSITNYANSVKDRFTISRDNSKNTLYLQMNSLRAEDTAVYYCAAGSRRTYYREPKFYPSWGQGTLVTVSS" scale_unit=nM result_number=1260
binder="M75-H5 (VHH) VHH: QVQLVESGGGLVQPGGSLRLSCAASGRTFDNYVMAWFRQAPGKEREFVASISGSGSITNYANSVKDRFTISRDSAKNAIYLQMNSLRAEDTAVYYCAAGSRRTYYREPKFYPSWGQGTLVTVSS" scale_unit=nM result_number=62.4
binder="R11 sdAb (VHH, also called R11 VHH) VHH: QVKLEESGGGLVQAGGSLRLSCVGPGFLLRSNTMGWYRQAPGKERELVAFIRPSGLTNYNDAVQGRFTISRDNAKNTVYLQMNALKPEDTAVYYCHTRPPFQRDSWGQGTQVTVSS" scale_unit=nM result_number=61.7
binder="M75-H4 (VHH) VHH: QVQLVESGGGLVQPGGSLRLSCAASGRTFDNYVMAWFRQAPGKEREFVASISGSGSITNYANSVKDRFTISRDSSKNALYLQMNSLRAEDTAVYYCAAGSRRTYYREPKFYPSWGQGTLVTVSS" scale_unit=nM result_number=377
